Origin of the recorded values: ChEMBL document CHEMBL6078700

test method notes: Tmax in Sprague-Dawley rat at 10 mg/kg, po
Format: ADME, organism-based
condition set: in vivo
measurement label: Tmax

# Tmax of [2H]C([2H])([2H])C([2H])([2H])[S+]([O-])c1ccccc1Nc1nc(Nc2cc(NC(=O)C=C)c(N(C)CCN(C)C)cc2OC)ncc1Cl (single isomer, unassigned; (-)) = 30 min

* * *

Test system: NCI-H2228
test method notes: Antiproliferative activity against human NCI-H2228 cells expressing EML4-ALK fusion incubated for 48 hrs by CCK8 assay
condition set: nci-h2228
measurement label: IC50 (nM)
Please state the figure in nM; there is no need to write the unit.

{"compound": "[2H]C([2H])([2H])C([2H])([2H])[S+]([O-])c1ccccc1Nc1nc(Nc2cc(NC(=O)C=C)c(N(C)CCN(C)C)cc2OC)ncc1Cl (single isomer, unassigned; (+))", "IC50 (nM)": 37.6}

Would you kindly look at the next entry?
Recorded result, [2H]C([2H])([2H])C([2H])([2H])[S+]([O-])c1ccccc1Nc1nc(Nc2cc(NC(=O)C=C)c(N(C)CCN(C)C)cc2OC)ncc1Cl (single isomer, unassigned; (-)) , IC50: 21.5
